Item-by-item account of combination Emax
Tested on: MDA-MB-436 (Breast Carcinoma)
Assay: combination Emax (second highest fraction inhibited in the dose matrix, 72 h); higher = more inhibition; extreme values may be limits of the assay
VALUE_KIND: combination Emax

* CC(=O)Nc1cccc(-n2c(=O)n(C3CC3)c(=O)c3c(Nc4ccc(I)cc4F)n(C)c(=O)c(C)c32)c1 [Trametinib] + Cc1nc(-c2cn3c(n2)-c2ccc(-c4cnn(C(C)(C)C(N)=O)c4)cc2OCC3)n(C(C)C)n1 [Taselisib] (first compound max 1 µM, 7x7, partner max 10 µM) | 0.527
* CN(C)CCCOc1ccc(-c2ccc3ncc4c(c3c2)n(C2CCOCC2)c(=O)n4C)cn1 [AZD0156] + C[C@@H]1COCCN1C2=NC(=NC(=C2)C3(CC3)[S@](=N)(=O)C)C4=C5C=CNC5=NC=C4 [AZD6738] (first compound max 1 µM, 7x7, partner max 10 µM) | 0.23
* CN(CCO)CC[C@H](CSc1ccccc1)Nc1ccc(S(=O)(=O)NC(=O)c2ccc(N3CCC([C@@H](O)c4ccccc4-c4ccc(Cl)cc4)CC3)cc2)cc1S(=O)(=O)C(F)(F)F [AZD4320] + CN(C)CCCOc1ccc(-c2ccc3ncc4c(c3c2)n(C2CCOCC2)c(=O)n4C)cn1 [AZD0156] (first compound max 1 µM, 7x7, partner max 1 µM) | 0.133
* COc1cccc(OCCCN)c1-c1cc(Nc2cnc(C#N)cn2)n[nH]1 [Prexasertib] + O=C(c1cc(Cc2n[nH]c(=O)c3ccccc23)ccc1F)N1CCN(C(=O)C2CC2)CC1 [Olaparib] (first compound max 1 µM, 7x7, partner max 10 µM) | 0.509
* CCN(CCO)CCCOc1ccc2c(Nc3cc(CC(=O)Nc4cccc(F)c4)[nH]n3)ncnc2c1 [AZD2811] + O=C(c1cc(Cc2n[nH]c(=O)c3ccccc23)ccc1F)N1CCN(C(=O)C2CC2)CC1 [Olaparib] (first compound max 1 µM, 7x7, partner max 10 µM) | 0.144
* COc1nnc2ccc(N3CCC(c4ccc(OCCN5CCN(C)C(=O)[C@H]5C)cc4)CC3)nn12 [AZD5153] + CCN(CCO)CCCOc1ccc2c(Nc3cc(CC(=O)Nc4cccc(F)c4)[nH]n3)ncnc2c1 [AZD2811] (first compound max 1 µM, 7x7, partner max 1 µM) | 0.287
* CC(=O)c1c(C)c2cnc(Nc3ccc(N4CCNCC4)cn3)nc2n(C2CCCC2)c1=O [Palbociclib] + Cc1c2c(nn1C)CSCc1cc(n(C)n1)CSc1cc(c3ccccc3c1)OCCCc1c(C(=O)O)n(C)c3c-2c(Cl)ccc13 [AZD5991] (first compound max 10 µM, 7x7, partner max 1 µM) | 0.229

----------
System: AU565 (Breast Carcinoma)
Experiment: combination Emax (second highest fraction inhibited in the dose matrix, 72 h); higher = more inhibition; extreme values may be limits of the assay
VALUE_KIND: combination Emax

- COc1nnc2ccc(N3CCC(c4ccc(OCCN5CCN(C)C(=O)[C@H]5C)cc4)CC3)nn12 [AZD5153] + CCN(CCO)CCCOc1ccc2c(Nc3cc(CC(=O)Nc4cccc(F)c4)[nH]n3)ncnc2c1 [AZD2811] (first compound max 1 µM, 7x7, partner max 1 µM): 0.359
- COc1cccc(OCCCN)c1-c1cc(Nc2cnc(C#N)cn2)n[nH]1 [Prexasertib] + CCc1c2c(nc3ccc(O)cc13)-c1cc3c(c(=O)n1C2)COC(=O)[C@]3(O)CC [SN-38] (first compound max 1 µM, 7x7, partner max 0.3 µM): 0.949
- CCc1c2c(nc3ccc(O)cc13)-c1cc3c(c(=O)n1C2)COC(=O)[C@]3(O)CC [SN-38] + CN(C)CCCOc1ccc(-c2ccc3ncc4c(c3c2)n(C2CCOCC2)c(=O)n4C)cn1 [AZD0156] (first compound max 0.3 µM, 7x7, partner max 1 µM): 0.8
- C=CCn1c(=O)c2cnc(Nc3ccc(N4CCN(C)CC4)cc3)nc2n1-c1cccc(C(C)(C)O)n1 [AZD1775] + C[C@@H]1COCCN1C2=NC(=NC(=C2)C3(CC3)[S@](=N)(=O)C)C4=C5C=CNC5=NC=C4 [AZD6738] (first compound max 1 µM, partner max 10 µM): 0.603
- NC1(C(=O)N[C@@H](CCO)c2ccc(Cl)cc2)CCN(c2ncnc3[nH]ccc23)CC1 [Capivasertib] + CCN(CCO)CCCOc1ccc2c(Nc3cc(CC(=O)Nc4cccc(F)c4)[nH]n3)ncnc2c1 [AZD2811] (first compound max 10 µM, 7x7, partner max 1 µM): 0.819
- Cc1cc2ncnn2cc1Nc1ncc2c(n1)n(C1CCOCC1)c(=O)n2C [AZD7648] + CCN(CCO)CCCOc1ccc2c(Nc3cc(CC(=O)Nc4cccc(F)c4)[nH]n3)ncnc2c1 [AZD2811] (first compound max 10 µM, 7x7, partner max 1 µM): 0.366
- CC(=O)c1c(C)c2cnc(Nc3ccc(N4CCNCC4)cn3)nc2n(C2CCCC2)c1=O [Palbociclib] + Cc1c2c(nn1C)CSCc1cc(n(C)n1)CSc1cc(c3ccccc3c1)OCCCc1c(C(=O)O)n(C)c3c-2c(Cl)ccc13 [AZD5991] (first compound max 10 µM, 7x7, partner max 1 µM): 0.998
- NC1(C(=O)N[C@@H](CCO)c2ccc(Cl)cc2)CCN(c2ncnc3[nH]ccc23)CC1 [Capivasertib] + CC(C)n1c(=O)n(C)c2cnc3cc(F)c(-c4ccc(OCCCN5CCCCC5)nc4)cc3c21 [AZD1390] (first compound max 10 µM, 7x7, partner max 0.3 µM): 0.535
- CN(C)CCCOc1ccc(-c2ccc3ncc4c(c3c2)n(C2CCOCC2)c(=O)n4C)cn1 [AZD0156] + C[C@@H]1COCCN1C2=NC(=NC(=C2)C3(CC3)[S@](=N)(=O)C)C4=C5C=CNC5=NC=C4 [AZD6738] (first compound max 1 µM, 7x7, partner max 10 µM): 0.473
- COc1cccc(OCCCN)c1-c1cc(Nc2cnc(C#N)cn2)n[nH]1 [Prexasertib] + CN(C)CCCOc1ccc(-c2ccc3ncc4c(c3c2)n(C2CCOCC2)c(=O)n4C)cn1 [AZD0156] (first compound max 1 µM, 7x7, partner max 1 µM): 0.714
- CN(CCO)CC[C@H](CSc1ccccc1)Nc1ccc(S(=O)(=O)NC(=O)c2ccc(N3CCC([C@@H](O)c4ccccc4-c4ccc(Cl)cc4)CC3)cc2)cc1S(=O)(=O)C(F)(F)F [AZD4320] + Cc1cc2ncnn2cc1Nc1ncc2c(n1)n(C1CCOCC1)c(=O)n2C [AZD7648] (first compound max 1 µM, 7x7, partner max 10 µM): 0.327

Hello, the source for this data is the supplement of paper PMC11061612, in case you need it.
